TARGET: T1, FPR R190/N192 (Homo sapiens, UniProt P21462)
T1 chain: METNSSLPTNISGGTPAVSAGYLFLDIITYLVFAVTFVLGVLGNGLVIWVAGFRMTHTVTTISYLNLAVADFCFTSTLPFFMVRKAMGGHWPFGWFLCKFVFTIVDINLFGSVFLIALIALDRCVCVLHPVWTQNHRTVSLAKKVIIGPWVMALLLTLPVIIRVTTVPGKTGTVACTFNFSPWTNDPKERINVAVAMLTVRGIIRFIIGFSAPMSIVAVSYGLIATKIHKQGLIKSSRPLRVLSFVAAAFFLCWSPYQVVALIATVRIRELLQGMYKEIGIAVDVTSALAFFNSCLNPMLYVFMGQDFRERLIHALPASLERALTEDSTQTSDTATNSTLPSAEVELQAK
ASSAY NOTES: FACS competition with formyl-Nle-Leu-Phe-Nle-Tyr-Lys-FITC
Square brackets hold non-standard residues; d marks the D form. Ends that are not written are not given here. * marks the point of attachment. Nle = CCCC[C@H](N)C(=O)O; For = O=C*

BINDER | Ki (nM)
For-[Nle][Nle]WEDWVGWI [formyl-NleNleWEDWVGWI] | 480
Ac-WEDWVGWI-NH2 [WEDWVGWI (FIV GP-36 peptide)] | 1300
